molecular target: Tyrosine-protein kinase JAK3 (Homo sapiens); conditions: at 0.1 µM;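 note: values reported are mean percent inhibition of JAK3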
readout: inhibition (%)
The figure you give is taken to be in %; do not add the unit.

Which inhibition is reported for this compound? COc1cc(N2CCN(C(C)C)CC2)ccc1Nc1nc(Nc2ccc(F)cc2C(=O)NC[C@@H](O)CO)c2cc[nH]c2n1
-5.03

Entry CCc1ccc(Oc2nccc(-c3c(-c4ccc(F)cc4)ncn3C3CCNCC3)n2)cc1 please
-1.25

Do the same for CS(=O)(=O)CCNCc1ccc(-c2ccc3ncnc(Nc4ccc(OCc5ccccc5)c(Br)c4)c3c2)o1 please
-5.54

# repeat for Cc1ccc(C(=O)NC(C)C)cc1-c1ccc(C(=O)NCC2CC2)cc1
0.73

Repeat for the following compound: Cc1ccc(NC(=O)c2ccoc2)cc1-c1ccc(C(=O)NCC2CC2)cc1
-1.84

Entry COc1cc(Nc2ncc3c(C)nc(-c4cccc(Oc5ccccc5)c4)n3n2)cc(OC)c1OC please
0.02

CN(C)CCOc1ccc(-c2cc(-c3ccc4c(c3)CCC4=NO)c(-c3ccncc3)o2)cc1 ?
-0.61

----------
target: Tyrosine-protein kinase TXK (Homo sapiens) (UniProt P42681); settings: at 0.1 µM;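 note: each listed value is a mean percent inhibition of TXK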
Sequence (P42681 whole entry): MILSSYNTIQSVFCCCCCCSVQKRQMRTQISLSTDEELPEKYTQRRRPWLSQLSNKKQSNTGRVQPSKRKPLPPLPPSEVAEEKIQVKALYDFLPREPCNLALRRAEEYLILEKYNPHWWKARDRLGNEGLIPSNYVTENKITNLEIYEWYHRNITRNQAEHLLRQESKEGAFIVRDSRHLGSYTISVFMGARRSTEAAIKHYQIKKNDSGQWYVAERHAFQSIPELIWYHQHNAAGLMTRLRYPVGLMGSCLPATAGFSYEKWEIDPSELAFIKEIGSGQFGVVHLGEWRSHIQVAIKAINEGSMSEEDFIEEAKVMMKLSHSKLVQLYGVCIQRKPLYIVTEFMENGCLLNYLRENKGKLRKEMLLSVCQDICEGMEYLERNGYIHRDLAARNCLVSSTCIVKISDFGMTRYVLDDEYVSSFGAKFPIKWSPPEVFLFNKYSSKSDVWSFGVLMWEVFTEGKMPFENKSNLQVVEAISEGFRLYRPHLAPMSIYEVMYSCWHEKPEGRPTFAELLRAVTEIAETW
Kindly supply the reported inhibition values for the records listed here.
Give just the numeric value; % need not be written.

Look up inhibition: c1ccc(Oc2ccc(Nc3ncc(-c4ccccc4)o3)cc2)cc1
1.51

Entry to check: Fc1ccc(-c2ncn(CCCN3CCOCC3)c2-c2ccncc2)cc1
1.42

What do we get for O=C(Nc1n[nH]c2cc(-c3cc(F)ccc3F)ccc12)C1CC1 ?
2.25

// query: COc1cccc(-n2cnc3c(N/N=C/c4ccncc4)ncnc32)c1
-1.8

Proceed to NC(=O)c1cc(-c2ccncc2)cc(-c2ccccc2)c1N
45

Now the compound C/C(Nc1ccc(S(N)(=O)=O)cc1)=C1/C(=O)Nc2ccccc21
-0.52

Now consider COc1cc(Nc2ncc(-c3ccccc3)o2)cc(OC)c1OC and answer again.
1.07

Param item: CN1CCN(CCCNc2nc3ccc(Oc4ccc(NC(=O)Nc5cc(C(F)(F)F)ccc5F)cc4)cc3[nH]2)CC1
1

----------
target: Protein kinase C gamma type (Homo sapiens); details: at 0.1 µM;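 note: values are mean percent inhibition of PKC gamma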
readout: inhibition (%)
All answers are understood in %, so give the number only.

Find the recorded inhibition belonging to NS(=O)(=O)c1ccc(Nc2cc(-c3ccc(O)c(F)c3)n[nH]2)cc1 and report it.
-3.75

CN(C)c1ccc2c(c1)/C(=C/Nc1ccc(S(N)(=O)=O)cc1)C(=O)N2 ?
0.64

Another molecule to look at: N#Cc1ccc(Oc2nccc(-c3c(-c4ccc(F)cc4)ncn3C3CCNCC3)n2)cc1
1.87

----------
biological target: Protein kinase C beta type (Homo sapiens) (UniProt P05771); settings: at 0.1 µM;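 note: PKC-beta1 splice variant of the enzyme, figure reported as mean inhibition, measured within the GSK PKIS kinase profiling panel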
Sequence (P05771 2-671 limits assumed): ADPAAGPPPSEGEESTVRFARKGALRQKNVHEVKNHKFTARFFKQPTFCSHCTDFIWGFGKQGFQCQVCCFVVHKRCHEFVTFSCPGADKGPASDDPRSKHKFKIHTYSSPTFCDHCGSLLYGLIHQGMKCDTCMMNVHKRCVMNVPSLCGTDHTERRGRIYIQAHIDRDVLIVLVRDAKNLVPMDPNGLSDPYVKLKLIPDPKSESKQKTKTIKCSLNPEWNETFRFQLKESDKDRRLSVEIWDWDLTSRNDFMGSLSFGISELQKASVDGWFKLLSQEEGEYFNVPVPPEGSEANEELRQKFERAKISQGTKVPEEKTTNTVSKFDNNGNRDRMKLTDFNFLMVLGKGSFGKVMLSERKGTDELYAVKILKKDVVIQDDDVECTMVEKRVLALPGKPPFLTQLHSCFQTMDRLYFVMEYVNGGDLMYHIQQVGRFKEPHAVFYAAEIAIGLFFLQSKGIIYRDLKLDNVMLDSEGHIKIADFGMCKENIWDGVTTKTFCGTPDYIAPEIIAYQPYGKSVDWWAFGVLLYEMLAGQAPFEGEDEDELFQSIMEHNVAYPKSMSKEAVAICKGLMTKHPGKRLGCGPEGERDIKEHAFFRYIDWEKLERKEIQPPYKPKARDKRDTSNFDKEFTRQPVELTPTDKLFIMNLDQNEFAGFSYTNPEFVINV
Description: GSK_PKIS: PKC-beta1 (splice variant) mean inhibition at 0.1 uM [Nanosyn]
Provide the recorded inhibition for the entries that follow.
Report as a plain number; the unit % is understood.

// lookup inhibition for O=C1Nc2ccccc2/C1=C/Nc1ccc(-n2cncn2)cc1
0.83

Field entry: C[C@@H](Oc1cc(-n2cnc3ccc(OC4CCN(C)CC4)cc32)sc1C(N)=O)c1ccccc1Cl
0.95

Queued: COc1ccc2cc(-c3c(-c4ccncc4)nc(-c4ccc([S+](C)[O-])cc4C)n3C)ccc2c1 (stereo not drawn)
2.04

----------
biological target: Sphingosine kinase 1 (Homo sapiens) (UniProt Q9NYA1); conditions: at 0.1 µM;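 note: mean percent inhibition of SPHK1 activity, measured within the GSK PKIS screening panel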
Sequence (Q9NYA1 whole entry): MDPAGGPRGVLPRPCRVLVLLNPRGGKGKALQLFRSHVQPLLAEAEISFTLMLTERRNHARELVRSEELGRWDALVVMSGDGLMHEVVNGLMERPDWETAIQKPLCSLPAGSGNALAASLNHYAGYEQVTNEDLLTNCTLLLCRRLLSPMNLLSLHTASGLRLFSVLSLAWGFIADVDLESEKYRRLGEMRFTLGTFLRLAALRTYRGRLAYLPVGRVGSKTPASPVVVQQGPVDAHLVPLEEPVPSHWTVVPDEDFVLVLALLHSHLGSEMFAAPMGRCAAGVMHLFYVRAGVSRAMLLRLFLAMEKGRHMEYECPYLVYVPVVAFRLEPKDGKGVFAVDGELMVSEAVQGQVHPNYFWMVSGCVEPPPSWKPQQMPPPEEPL
Please provide measured inhibition for the entries that follow.
// note: answer is a bare numeric in %

Would you mind telling me what inhibition value was observed for NC(=O)c1cc(-c2ccncc2)cc(-c2ccccc2)c1N ?
-0.86

Then this compound: O=C(NCC1CC1)c1ccc(-c2cccc(C(=O)NC3CC3)c2)cc1
0.53

Follow-up item: COc1cccc(-n2cnc3c(N/N=C/c4ccncc4)ncnc32)c1
-0.37

----------
target: Calcium/calmodulin-dependent protein kinase type 1D (Homo sapiens) (UniProt Q8IU85); settings: at 0.1 µM;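 note: reported figure is the mean inhibition of CAMK1D, from the GSK PKIS screening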
Sequence (Q8IU85 whole entry, looked up): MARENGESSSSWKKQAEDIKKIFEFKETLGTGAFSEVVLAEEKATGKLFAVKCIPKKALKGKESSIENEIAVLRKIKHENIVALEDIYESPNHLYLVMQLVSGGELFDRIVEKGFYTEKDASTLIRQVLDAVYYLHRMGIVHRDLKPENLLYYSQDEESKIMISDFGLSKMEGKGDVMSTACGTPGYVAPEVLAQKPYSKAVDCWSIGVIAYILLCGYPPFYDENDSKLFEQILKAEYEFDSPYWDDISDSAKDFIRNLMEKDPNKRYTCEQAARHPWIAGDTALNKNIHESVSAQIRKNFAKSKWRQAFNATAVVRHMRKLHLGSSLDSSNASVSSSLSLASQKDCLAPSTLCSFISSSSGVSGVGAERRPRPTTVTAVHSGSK
readout: inhibition (%)
The figure you give is taken to be in %; do not add the unit.

What value of inhibition has been reported for the following molecule? COc1cccc(-n2cnc3c(N/N=C/c4ccncc4)ncnc32)c1
0.54

Can you handle COc1cc(Nc2ncc3c(C)nc(-c4cccc(C(F)(F)F)c4)n3n2)cc(OC)c1OC next?
-1.94

// query: FC(F)(F)c1cccc(Nc2nccc(-c3cnn4nc(-c5ccccc5)ccc34)n2)c1
0.17

COc1cc2ncn(-c3cc(OCc4cccs4)c(C(N)=O)s3)c2cc1OC , same question.
0.15

Request: CN(C)CCOc1ccc(-c2cc(-c3ccc4c(c3)CCC4=NO)c(-c3ccncc3)o2)cc1
-0.88

Ok, now O=C(Nc1n[nH]c2nc(-c3ccco3)ccc12)C1CC1
0.8

Next molecule: N#Cc1ccc(Oc2nccc(-c3c(-c4ccc(F)cc4)ncn3C3CCNCC3)n2)cc1
0.44

Next: COC(=O)Nc1nc2ccc(Sc3ccc(NC(=O)Nc4cc(C(F)(F)F)ccc4F)cc3)cc2[nH]1
0.9

And CCS(=O)(=O)c1ccc(OC)c(Nc2ncc(-c3ccccc3Cl)o2)c1 ?
0.68

Now this one: Fc1ccc(-c2ncn(CCCN3CCOCC3)c2-c2ccncc2)cc1
1.77

Subsequent entry: c1ccc(Oc2ccc(Nc3ncc(-c4ccccc4)o3)cc2)cc1
0.01

Fc1ccc(-c2nc3n(c2-c2ccncc2)CCS3)cc1 ?
0.49

Next up: NC(=O)Cc1ccccc1Oc1nccc(-c2c(-c3ccc(F)cc3)ncn2C2CCNCC2)n1
0.63

Cool, now COc1cc2ncn(-c3cc(OCCc4ccccc4)c(C(N)=O)s3)c2cc1OC
0.21

Next molecule up: COc1cc(Nc2ncc(-c3ccccc3)o2)cc(OC)c1OC
-1.93

// next record COc1ccc2cc(-c3c(-c4ccncc4)nc(-c4ccc([S+](C)[O-])cc4C)n3C)ccc2c1 (stereo unspecified)
0

----------
biological target: Tyrosine-protein kinase Lyn (Homo sapiens); details: at 0.1 µM;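 note: mean inhibition of the LYN B splice variant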
Description: GSK_PKIS: LYN B (splice variant) mean inhibition at 0.1 uM [Nanosyn]
Assign class by inhibition: not lower than 2% means satisfied; lower than 2% means not satisfied.

API: above_or_equal(metric=inhibition, cutoff=2%) for item COc1cc2ncn(-c3cc(OCCc4ccccc4)c(C(N)=O)s3)c2cc1OC
not satisfied

Next compound up: CCC(=O)Nc1ccc(C)c(-c2ccc(C(=O)NCC3CC3)cc2)c1
not satisfied

Also COc1cc(Nc2ncc3c(C)nc(-c4cccc(Oc5ccccc5)c4)n3n2)cc(OC)c1OC ?
not satisfied

Try COc1cc(N2CCN(C(C)C)CC2)ccc1Nc1nc(Nc2ccc(F)cc2C(=O)NC[C@@H](O)CO)c2cc[nH]c2n1 next.
satisfied

Please give the result for Fc1ccc(-c2ncn(C3CCNCC3)c2-c2ccnc(Oc3ccc(F)c(F)c3)n2)cc1 too.
satisfied

// repeat for COc1ccc2cc(-c3c(-c4ccncc4)nc(-c4ccc(S(C)(=O)=O)cc4C)n3C)ccc2c1 and report
satisfied

Next entry: FC(F)(F)c1cccc(Nc2nccc(-c3cnn4nc(-c5ccccc5)ccc34)n2)c1
not satisfied

Next record, please: CS(=O)(=O)CCNCc1cc(-c2cc3c(Nc4ccc(OCc5cccc(F)c5)c(Cl)c4)ncnc3s2)cs1
satisfied

What about this compound? Clc1ccc(CNc2nccc(-c3cnn4ncccc34)n2)cc1
not satisfied

Let us now turn to CN(c1ccc(NC(=O)Nc2c(Cl)cccc2Cl)cc1)c1ccnc(Nc2cccc(CS(C)(=O)=O)c2)n1
satisfied

Similarly, C#Cc1cccc(Nc2ncnc3ccc(OCCCCNCCS(C)(=O)=O)cc23)c1 ?
satisfied

Also check COc1cc(Nc2ncc(-c3ccccc3)o2)cc(OC)c1OC
satisfied

Then this compound: COc1ccc2cc(-c3c(-c4ccncc4)nc(-c4ccc([S+](C)[O-])cc4C)n3C)ccc2c1 (stereo unspecified)
not satisfied

Field entry: Cc1ccc(C(=O)NC2CCC2)cc1-c1ccc(C(=O)NCC2CC2)cc1
satisfied

Let us now turn to O=C(Nc1n[nH]c2cc(-c3ccccc3)ccc12)C1CC1
satisfied

// same read-out, input: Nc1nccc(-c2c(-c3ccc(F)cc3)ncn2C2CCC(O)CC2)n1 (stereo unspecified)
not satisfied

Item: NC(=O)c1ccc(Oc2nccc(-c3c(-c4ccc(F)cc4)ncn3C3CCNCC3)n2)cc1
not satisfied

One more compound: NS(=O)(=O)c1ccc(N/N=C2\C(=O)Nc3ccc(C(=O)NCCCn4ccnc4)cc32)cc1
satisfied

Now consider O=C1Nc2ccc(I)cc2C1=Cc1cc(Br)c(O)c(Br)c1 and answer again.
satisfied

Also CS(=O)(=O)CCNCc1ccc(-c2ccc3ncnc(Nc4ccc(OCc5ccccc5)c(Br)c4)c3c2)o1 , if possible.
satisfied

And then C[C@@H](Oc1cc(-n2cnc3ccc(OCC4CCN(C)CC4)cc32)sc1C(N)=O)c1ccccc1Cl , what is it?
satisfied

Input N#Cc1ccc(Oc2nccc(-c3c(-c4ccc(F)cc4)ncn3C3CCNCC3)n2)cc1
satisfied

Please answer likewise for CNC(=O)c1cncc(/C=C/c2c(C)cccc2C)c1
satisfied

And then NC(=O)Cc1ccccc1Oc1nccc(-c2c(-c3ccc(F)cc3)ncn2C2CCNCC2)n1 , what is it?
not satisfied

Request: CCS(=O)(=O)c1ccc(OC)c(Nc2ncc(-c3ccccc3Cl)o2)c1
satisfied

Same question, COc1cccc(-n2cnc3c(N/N=C/c4ccncc4)ncnc32)c1 this time
satisfied
